Assay: amyloid nucleation score (Sup35N fusion, yeast selection) (log enrichment); library NNK1; higher = more nucleation; inactive = no reads after selection;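 further: zero at mode of non-aggregating sequences after 7 days selection at 30°C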
measured_property: amyloid nucleation score

Check out these entries, answers already filled in.
amyloid nucleation score for SLVCNMFLSILRYFGFLNRS ? inactive

amyloid nucleation score for YSLSNVEGYYTYYYRT ? -0.071

amyloid nucleation score for DSGLFSKVVMHDNPSSVDKL ? -0.123

amyloid nucleation score for SATTIFFRYSKIREFRLVFG ? inactive

---
amyloid nucleation score for HIESNYRSERTDGWYICRSG ? 1.11

amyloid nucleation score for MNCVLIVVPRMTLGNYRSSW ? 5.21

amyloid nucleation score for KAKTFI ? 0.268

amyloid nucleation score for VASRTLLCSLGRKRVVVCGC ? -0.667

amyloid nucleation score for YLFTYRRVTWGSTLQS ? 1.65

amyloid nucleation score for VRVFGVTEYNRSCSI ? -0.847

amyloid nucleation score for IILFSSVGCSMCMTSGLEGF ? 6.96

amyloid nucleation score for GNLVTCNSKYTRMEG ? 0.166

amyloid nucleation score for FMDWIVSCGKCKIGSYYLCI ? -0.388

* * *

Experiment: amyloid nucleation score (Sup35N fusion, yeast selection) (log enrichment); library NNK2; higher = more nucleation; inactive = no reads after selection
Label not met if amyloid nucleation score falls below 0.7; label met in every other case.

Solved entries:
Can LFKEDRDRCSC be said to have amyloid nucleation score at or above 0.7? met

Can RFGRSQVRAKCRVDDDRWIR be said to have amyloid nucleation score at or above 0.7? met

Can SESWSSCIMA be said to have amyloid nucleation score at or above 0.7? met

Can STYRSASMVQVGRLVHGNQW be said to have amyloid nucleation score at or above 0.7? met

---
Can SLRNDGFNLDPVLHALFVEL be said to have amyloid nucleation score at or above 0.7? not met

* * *

Experiment: amyloid nucleation score (Sup35N fusion, yeast selection) (log enrichment); library NNK1; higher = more nucleation; inactive = no reads after selection
measured_property: amyloid nucleation score
Hey, just send me the number, nothing else.

Check out these entries, answers already filled in.
amyloid nucleation score for SKRCWGDGMDTFSAIVEAIW ? -0.128

amyloid nucleation score for VKSYNGVGTMYLSRIMLYQY ? 0.163

amyloid nucleation score for KKKYTEHISFTALHKLFTRR ? 0.189

amyloid nucleation score for QMLIAGGAKTGTPLFPGASS ? 0.358

amyloid nucleation score for MRFSPVPCLNF ? 0.353

---
amyloid nucleation score for GFRQVSCHHHWGGNSWMCR ? 0.717

amyloid nucleation score for QGRGMDNVIYVEVRMRDCRR ? 2.04

amyloid nucleation score for IFVSHYNVR ? 0.734

amyloid nucleation score for LADGLTVRSKYYISVNSVGS ? -0.16

amyloid nucleation score for SPSFYFH ? -0.019

amyloid nucleation score for ETFNWLSCIVRRSQKYAEET ? -0.242

amyloid nucleation score for SDYTYAFPCMRGWCWYFAVS ? -0.691

amyloid nucleation score for DHGHCISPNTSYFMVDWFLK ? 0.473

amyloid nucleation score for PIIVDRCCFDYIRRVNVLYN ? 0.677

amyloid nucleation score for NRCRDCREVYIKFPTWAWSW ? -0.253

* * *

Assay: amyloid nucleation score (Sup35N fusion, yeast selection) (log enrichment); library NNK1; higher = more nucleation; inactive = no reads after selection
Label no if amyloid nucleation score falls below -0.1; label yes in every other case.

Solved entries:
Can AGSGMLSKLVLLSRKSVSCN be said to have amyloid nucleation score at or above -0.1? yes

Can RCASHKTQYKRCGGVDEQEA be said to have amyloid nucleation score at or above -0.1? yes

Can ILGFSRWNLNCISSRGRKIR be said to have amyloid nucleation score at or above -0.1? no

Query substance follows.
Can LGVIYLRLWFQSGGRQVLEG be said to have amyloid nucleation score at or above -0.1? yes
